assay_target: human PTH1 receptor (Homo sapiens, UniProt Q03431)
Sequence (Q03431 27-593): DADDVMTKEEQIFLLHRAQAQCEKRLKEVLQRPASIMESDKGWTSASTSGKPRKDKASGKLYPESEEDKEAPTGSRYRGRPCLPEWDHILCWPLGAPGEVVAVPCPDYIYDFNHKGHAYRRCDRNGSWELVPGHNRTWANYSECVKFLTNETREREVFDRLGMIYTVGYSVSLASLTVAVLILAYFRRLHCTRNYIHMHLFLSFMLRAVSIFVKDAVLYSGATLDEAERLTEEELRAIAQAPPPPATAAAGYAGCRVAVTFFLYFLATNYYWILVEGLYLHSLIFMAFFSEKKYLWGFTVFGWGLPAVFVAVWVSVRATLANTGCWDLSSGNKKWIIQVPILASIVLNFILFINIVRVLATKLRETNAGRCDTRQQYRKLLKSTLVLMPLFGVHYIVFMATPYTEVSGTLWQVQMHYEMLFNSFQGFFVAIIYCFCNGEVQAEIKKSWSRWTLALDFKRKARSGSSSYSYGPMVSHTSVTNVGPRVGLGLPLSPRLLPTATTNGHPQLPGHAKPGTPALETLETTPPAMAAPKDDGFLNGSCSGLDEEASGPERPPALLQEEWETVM
test_description: In vitro cAMP signal activity in HKRK-B7 cells (LLC-PK1 cells overexpressing the human PTH1 receptor)
Format: cell-based
test_parameters: HKRK-B7 cells; compound at 1×10^−3 M; cAMP produced as percentage of that produced by hPTH(1-34) at 100 nM
Exercise: for every item that follows, state its recorded cAMP production activity (%).
// units = %; emit number, no label

Exam item: Return reported cAMP production activity (%); argument: CON(C)C(=O)c1cc(C)c(CCS(=O)(=O)N2CCC3(CC2)N=C(C2CCC(C)CC2)NC3=O)c(C)c1 (stereo not shown)
Marked response: 73

Exam item: Return reported cAMP production activity (%); argument: `O=C1NC(C2CCCCC2)=NC12CCN(S(=O)(=O)c1ccc3c(c1)OCCO3)CC2`
Marked response: 34

Exam item: Return reported cAMP production activity (%); argument: CNc1cc(C)c(CCS(=O)(=O)N2CCC3(CC2)N=C(C2CCC(=C(C)C)CC2)NC3=O)c(C)c1 (stereo not shown)
Marked response: 87

Exam item: Return reported cAMP production activity (%); argument: `CCCCCCCCCC1=NC2(CCN(S(=O)(=O)C(F)(F)Cc3c(C)cc(N(C)C(N)=O)cc3C)CC2)C(=O)N1`
Marked response: 151

Exam item: Return reported cAMP production activity (%); argument: `CCC[C@@H]1CCC[C@H](C2=NC3(CCN(S(=O)(=O)/C=C/c4c(C)cc(N(C)C(N)=O)cc4C)CC3)C(=O)N2)C1`
Marked response: 99

Exam item: Return reported cAMP production activity (%); argument: `Cc1cc(C(=O)N2CCCC2)ccc1/C=C/S(=O)(=O)N1CCC2(CC1)N=C(c1ccc(F)c(C(F)(F)F)c1)NC2=O`
Marked response: 61

Exam item: Return reported cAMP production activity (%); argument: `Cc1cc(C(=O)N2CCN(C(=O)CCCN(C)C)CC2)cc(C)c1/C=C/S(=O)(=O)N1CCC2(CC1)N=C(c1cccc(OC(F)(F)F)c1)NC2=O`
Marked response: 94
